System under test: Acetylcholinesterase (Electrophorus electricus)
Sequence (O42275 whole entry): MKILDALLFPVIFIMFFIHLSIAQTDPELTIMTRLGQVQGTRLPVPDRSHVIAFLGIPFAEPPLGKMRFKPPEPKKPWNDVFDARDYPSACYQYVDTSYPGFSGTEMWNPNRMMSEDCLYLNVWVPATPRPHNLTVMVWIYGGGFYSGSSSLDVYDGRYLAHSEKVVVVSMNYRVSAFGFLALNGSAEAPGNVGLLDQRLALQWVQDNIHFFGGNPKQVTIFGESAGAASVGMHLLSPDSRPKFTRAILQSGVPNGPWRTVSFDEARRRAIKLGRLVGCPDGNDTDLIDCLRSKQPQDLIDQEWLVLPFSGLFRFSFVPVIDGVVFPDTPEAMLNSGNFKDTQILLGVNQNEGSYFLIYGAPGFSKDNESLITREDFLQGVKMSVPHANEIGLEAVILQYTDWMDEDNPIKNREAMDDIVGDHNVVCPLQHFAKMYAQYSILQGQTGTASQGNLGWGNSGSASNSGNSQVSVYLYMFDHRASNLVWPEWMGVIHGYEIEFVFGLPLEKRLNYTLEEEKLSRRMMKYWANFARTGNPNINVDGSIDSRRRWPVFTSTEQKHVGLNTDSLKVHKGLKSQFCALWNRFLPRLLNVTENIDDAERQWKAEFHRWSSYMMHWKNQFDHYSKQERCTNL
Overview of recorded IC50 for various molecules
Parameter measured: IC50 (µM)

>>> print(df.to_string())
                        smiles_structure  measurement_units  value_observed
0       O=C(NCCN1CCCCC1)c1cc2ccccc2oc1=O                 µM            12.6
1  CCOC(=O)c1cc2ccc(OCCN3CCCCC3)cc2oc1=O                 µM           0.356

====

Recorded Ki values (UniProtKB O42275) are given below.
Parameter measured: Ki

In [3]: df
Out[3]:
                        smiles_structure  system_under_test  value_observed
0       O=C(NCCN1CCCCC1)c1cc2ccccc2oc1=O   UniProtKB O42275         13.8 µM
1  CCOC(=O)c1cc2ccc(OCCN3CCCCC3)cc2oc1=O   UniProtKB O42275        0.031 µM
